Species: Rattus norvegicus
test_summary: Open TG-GATES - Regimen: Daily Repeat
Assay type: toxicity, organism-based, Sprague-Dawley
Parameters: regimen Daily Repeat, gender Male, age 6 weeks
stated_conditions: in vivo, po, 100 mg/kg, 72 h, tissue Blood, route gavage, dose level Low, time 3 day
assay_endpoint: Eos (%)
Enter your answer as a number in %; do not include the unit.

Cc1nnc2n1-c1ccc(Cl)cc1C(c1ccccc1Cl)=NC2 [TRIAZOLAM]    1.2
COC(=O)C1=C(C)NC(C)=C(C(=O)OC)C1c1ccccc1[N+](=O)[O-] [NIFEDIPINE]    1
CNC(=C[N+](=O)[O-])NCCSCc1ccc(CN(C)C)o1 [RANITIDINE]    1.4

-- ask Look at this compound and give its reported Eos. CCOc1ccc(NC(C)=O)cc1 [PHENACETIN]
-- reply 1.2

-- ask Look at this compound and give its reported Eos. CN/C(=N/CCSCc1nc[nH]c1C)NC#N [CIMETIDINE]
-- reply 1

-- ask Look at this compound and give its reported Eos. O=C(OC[C@H]1O[C@@H](OC(=O)c2cc(O)c(O)c(OC(=O)c3cc(O)c(O)c(O)c3)c2)[C@H](OC(=O)c2cc(O)c(O)c(OC(=O)c3cc(O)c(O)c(O)c3)c2)[C@@H](OC(=O)c2cc(O)c(O)c(OC(=O)c3cc(O)c(O)c(O)c3)c2)[C@@H]1OC(=O)c1cc(O)c(O)c(OC(=O)c2cc(O)c(O)c(O)c2)c1)c1cc(O)c(O)c(OC(=O)c2cc(O)c(O)c(O)c2)c1 [TANNIC ACID]
-- reply 1

---

Organism: Rattus norvegicus
test_summary: Open TG-GATES - Regimen: Daily Repeat
Type: toxicity, organism-based, Sprague-Dawley
Design: regimen Daily Repeat, gender Male, age 6 weeks
stated_conditions: in vivo, po, 300 mg/kg, […], tissue Plasma, route gavage, dose level Middle, time 14 day
Each item that follows carries a reported BUN.
Enter your answer as a number in mg/dL; do not include the unit.

Examples with their reported BUN follow.
CN/C(=N/CCSCc1nc[nH]c1C)NC#N    19.2
COC(=O)C1=C(C)NC(C)=C(C(=O)OC)C1c1ccccc1[N+](=O)[O-]    18.2
CNC(=C[N+](=O)[O-])NCCSCc1ccc(CN(C)C)o1    17.4
O=C(OC[C@H]1O[C@@H](OC(=O)c2cc(O)c(O)c(OC(=O)c3cc(O)c(O)c(O)c3)c2)[C@H](OC(=O)c2cc(O)c(O)c(OC(=O)c3cc(O)c(O)c(O)c3)c2)[C@@H](OC(=O)c2cc(O)c(O)c(OC(=O)c3cc(O)c(O)c(O)c3)c2)[C@@H]1OC(=O)c1cc(O)c(O)c(OC(=O)c2cc(O)c(O)c(O)c2)c1)c1cc(O)c(O)c(OC(=O)c2cc(O)c(O)c(O)c2)c1    20
Cc1nnc2n1-c1ccc(Cl)cc1C(c1ccccc1Cl)=NC2    15

Please find the next molecule below.
-- ask Look at this molecule and give its reported BUN. CCOc1ccc(NC(C)=O)cc1
-- reply 14.2

---

Species on record: Rattus norvegicus
test_summary: Open TG-GATES - Regimen: Single
Format: toxicity, organism-based, Sprague-Dawley
Set-up: regimen Single, gender Male, age 6 weeks
stated_conditions: in vivo, po, 300 mg/kg, 24 h, tissue Plasma, route gavage, dose level Middle
Decide using TBIL alone. Strictly below 0.06 mg/dL: true (1). Equal to or above 0.06 mg/dL: false (0).

COC(=O)C1=C(C)NC(C)=C(C(=O)OC)C1c1ccccc1[N+](=O)[O-]    true (1)
Cc1nnc2n1-c1ccc(Cl)cc1C(c1ccccc1Cl)=NC2    true (1)
CN/C(=N/CCSCc1nc[nH]c1C)NC#N    false (0)
O=C(OC[C@H]1O[C@@H](OC(=O)c2cc(O)c(O)c(OC(=O)c3cc(O)c(O)c(O)c3)c2)[C@H](OC(=O)c2cc(O)c(O)c(OC(=O)c3cc(O)c(O)c(O)c3)c2)[C@@H](OC(=O)c2cc(O)c(O)c(OC(=O)c3cc(O)c(O)c(O)c3)c2)[C@@H]1OC(=O)c1cc(O)c(O)c(OC(=O)c2cc(O)c(O)c(O)c2)c1)c1cc(O)c(O)c(OC(=O)c2cc(O)c(O)c(O)c2)c1    false (0)

Next:
-- ask Does this compound meet the criterion TBIL < 0.06 mg/dL? CNC(=C[N+](=O)[O-])NCCSCc1ccc(CN(C)C)o1
-- reply false (0)

---

Species on record: Rattus norvegicus
test_summary: Open TG-GATES - Regimen: Daily Repeat
Type: toxicity, organism-based, Sprague-Dawley
Design: regimen Daily Repeat, gender Male, age 6 weeks
stated_conditions: in vivo, po, 100 mg/kg, […], tissue Plasma, route gavage, dose level Low, time 14 day
Each item that follows carries a reported gamma-GTP.

Examples with their reported gamma-GTP follow.
CCOc1ccc(NC(C)=O)cc1    1.2 IU/L
CN/C(=N/CCSCc1nc[nH]c1C)NC#N    0.8 IU/L
O=C(OC[C@H]1O[C@@H](OC(=O)c2cc(O)c(O)c(OC(=O)c3cc(O)c(O)c(O)c3)c2)[C@H](OC(=O)c2cc(O)c(O)c(OC(=O)c3cc(O)c(O)c(O)c3)c2)[C@@H](OC(=O)c2cc(O)c(O)c(OC(=O)c3cc(O)c(O)c(O)c3)c2)[C@@H]1OC(=O)c1cc(O)c(O)c(OC(=O)c2cc(O)c(O)c(O)c2)c1)c1cc(O)c(O)c(OC(=O)c2cc(O)c(O)c(O)c2)c1    1.8 IU/L
COC(=O)C1=C(C)NC(C)=C(C(=O)OC)C1c1ccccc1[N+](=O)[O-]    1 IU/L
Cc1nnc2n1-c1ccc(Cl)cc1C(c1ccccc1Cl)=NC2    1 IU/L

Please find the next compound below.
-- ask Look at this compound and give its reported gamma-GTP. CNC(=C[N+](=O)[O-])NCCSCc1ccc(CN(C)C)o1
-- reply 1.2 IU/L

---

Organism: Rattus norvegicus
test_summary: Open TG-GATES - Regimen: Single
Type: toxicity, organism-based, Sprague-Dawley
Design: regimen Single, gender Male, age 6 weeks
stated_conditions: in vivo, po, 1000 mg/kg, 9 h, tissue Kidney, route gavage, dose level High
Each item that follows carries a reported KIDNEY_L.
Enter your answer as a number in g; do not include the unit.

Examples with their reported KIDNEY_L follow.
Cc1nnc2n1-c1ccc(Cl)cc1C(c1ccccc1Cl)=NC2 [TRIAZOLAM]    0.9
COC(=O)C1=C(C)NC(C)=C(C(=O)OC)C1c1ccccc1[N+](=O)[O-] [NIFEDIPINE]    0.9
CN/C(=N/CCSCc1nc[nH]c1C)NC#N [CIMETIDINE]    0.9
O=C(OC[C@H]1O[C@@H](OC(=O)c2cc(O)c(O)c(OC(=O)c3cc(O)c(O)c(O)c3)c2)[C@H](OC(=O)c2cc(O)c(O)c(OC(=O)c3cc(O)c(O)c(O)c3)c2)[C@@H](OC(=O)c2cc(O)c(O)c(OC(=O)c3cc(O)c(O)c(O)c3)c2)[C@@H]1OC(=O)c1cc(O)c(O)c(OC(=O)c2cc(O)c(O)c(O)c2)c1)c1cc(O)c(O)c(OC(=O)c2cc(O)c(O)c(O)c2)c1 [TANNIC ACID]    0.9

Please find the next molecule below.
-- ask Look at this molecule and give its reported KIDNEY_L. CNC(=C[N+](=O)[O-])NCCSCc1ccc(CN(C)C)o1 [RANITIDINE]
-- reply 1

---

Species: Rattus norvegicus
test_summary: Open TG-GATES - Regimen: Daily Repeat
Type: toxicity, organism-based, Sprague-Dawley
Set-up: regimen Daily Repeat, gender Male, age 6 weeks
stated_conditions: in vivo, po, 300 mg/kg, […], tissue Plasma, route gavage, dose level Middle, time 28 day
Each item that follows carries a reported CRE.
Enter your answer as a number in mg/dL; do not include the unit.

Examples with their reported CRE follow.
COC(=O)C1=C(C)NC(C)=C(C(=O)OC)C1c1ccccc1[N+](=O)[O-]    0.3
O=C(OC[C@H]1O[C@@H](OC(=O)c2cc(O)c(O)c(OC(=O)c3cc(O)c(O)c(O)c3)c2)[C@H](OC(=O)c2cc(O)c(O)c(OC(=O)c3cc(O)c(O)c(O)c3)c2)[C@@H](OC(=O)c2cc(O)c(O)c(OC(=O)c3cc(O)c(O)c(O)c3)c2)[C@@H]1OC(=O)c1cc(O)c(O)c(OC(=O)c2cc(O)c(O)c(O)c2)c1)c1cc(O)c(O)c(OC(=O)c2cc(O)c(O)c(O)c2)c1    0.6
CN/C(=N/CCSCc1nc[nH]c1C)NC#N    0.5
CCOc1ccc(NC(C)=O)cc1    0.3
Cc1nnc2n1-c1ccc(Cl)cc1C(c1ccccc1Cl)=NC2    0.3

Please find the next molecule below.
-- ask Look at this molecule and give its reported CRE. CNC(=C[N+](=O)[O-])NCCSCc1ccc(CN(C)C)o1
-- reply 0.5
